Target: human δ opioid receptor (human, UniProt P41143 1-372)
Sequence (P41143 whole entry, stated change not applied): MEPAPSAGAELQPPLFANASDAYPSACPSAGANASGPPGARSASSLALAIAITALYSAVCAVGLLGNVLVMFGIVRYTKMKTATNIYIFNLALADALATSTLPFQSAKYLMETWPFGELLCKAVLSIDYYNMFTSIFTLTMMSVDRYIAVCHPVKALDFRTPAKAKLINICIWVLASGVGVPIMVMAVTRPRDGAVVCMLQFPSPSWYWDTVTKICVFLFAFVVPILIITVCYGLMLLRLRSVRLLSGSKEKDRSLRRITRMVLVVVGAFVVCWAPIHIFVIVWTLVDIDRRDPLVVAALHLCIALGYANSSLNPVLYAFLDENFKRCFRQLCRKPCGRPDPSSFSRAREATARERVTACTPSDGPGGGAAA
Assay: cell-based or functional assay
Square brackets hold non-standard residues; d marks the D form. * marks the point of attachment. OBzl(3,5-(CF3)2) = FC(F)(F)c1cc(CO*)cc(C(F)(F)F)c1; Met(O) = CS(=O)CC[C@H](N)C(=O)O
Property: [35S]GTP-γ-S binding Emax (%)

[[record]]
binder = "H-Y[dA]GF[dF]PLW-{OBzl(3,5-(CF3)2)} (also: TFA salt, TFA salt; also called TY007) [H-Tyr-D-Ala-Gly-Phe-D-Phe-Pro-Leu-Trp-O-3,5-Bzl(CF3)2]"
property = "[35S]GTP-γ-S binding Emax"
uom = "%"
endpoint_value = 26

[[record]]
binder = "H-Y[dA]GFMPLW-{OBzl(3,5-(CF3)2)} (also: TFA salt, TFA salt; also called TY005; TY5) [H-Tyr-D-Ala-Gly-Phe-Met-Pro-Leu-Trp-O-3,5-Bzl(CF3)2]"
property = "[35S]GTP-γ-S binding Emax"
uom = "%"
endpoint_value = 51

[[record]]
binder = "YAGFXPLW (D-Ala at 2; Nle (norleucine, written X) at 5; C-terminal 3,5-bis(trifluoromethyl)benzyl ester, TFA salt; also called TY018) [H-Tyr-D-Ala-Gly-Phe-Nle-Pro-Leu-Trp-O-3,5-Bzl(CF3)2]"
property = "[35S]GTP-γ-S binding Emax"
uom = "%"
endpoint_value = 129

[[record]]
binder = "H-Y[dA]GFGPLW-{OBzl(3,5-(CF3)2)} (also: TFA salt, TFA salt; also called TY006) [H-Tyr-D-Ala-Gly-Phe-Gly-Pro-Leu-Trp-O-3,5-Bzl(CF3)2]"
property = "[35S]GTP-γ-S binding Emax"
uom = "%"
endpoint_value = 35

[[record]]
binder = "H-Y[dA]GF[Met(O)]PLW-{OBzl(3,5-(CF3)2)} (also: TFA salt, TFA salt; also called TY023) [H-Tyr-D-Ala-Gly-Phe-Met(O)-Pro-Leu-Trp-O-3,5-Bzl(CF3)2]"
property = "[35S]GTP-γ-S binding Emax"
uom = "%"
endpoint_value = 53

[[record]]
binder = "H-Y[dA]GFFPLW-{OBzl(3,5-(CF3)2)} (also: TFA salt, TFA salt; also called TY003) [H-Tyr-D-Ala-Gly-Phe-Phe-Pro-Leu-Trp-O-3,5-Bzl(CF3)2]"
property = "[35S]GTP-γ-S binding Emax"
uom = "%"
endpoint_value = 39

[[record]]
binder = "H-Y[dA]GFLPLW-{OBzl(3,5-(CF3)2)} (also: TFA salt, TFA salt; also called TY004) [H-Tyr-D-Ala-Gly-Phe-Leu-Pro-Leu-Trp-O-3,5-Bzl(CF3)2]"
property = "[35S]GTP-γ-S binding Emax"
uom = "%"
endpoint_value = 44

